Assay: Drug metabolism in Sprague-Dawley rat serum assessed as esterase-mediated hydrolysis measured after 5 mins
Type: ADME, cell-free
measurementKind: metabolised at 5 min

Supply measured metabolised at 5 min of CCOC(=O)C(C)(C)Oc1ccc(Cl)cc1 [CLOFIBRATE] in your reply.
> 90%

----------
Assay: Drug metabolism in Ringer bicarbonate buffer assessed as hydrolysis at pH 7.4 measured after 60 mins
Assay type: physicochemical
Details: read-out: Drug metabolism
measurementKind: degraded at 1 h

Supply measured degraded at 1 h of CCOC(=O)C(C)(C)Oc1ccc(Cl)cc1 [CLOFIBRATE] in your reply.
< 20%

----------
Assay: Drug metabolism in Sprague-Dawley rat serum assessed as esterase-mediated hydrolysis at 0.05 M measured after 5 mins
Format: ADME, cell-free
Details: read-out: Drug metabolism
measurementKind: metabolised at 5 min

Supply measured metabolised at 5 min of O=C1OCCC12Cc1cc(Cl)ccc1O2 (stereo unspecified) in your reply.
> 90%
